Experimental protocol: Metabolic stability, rat liver microsomes
Settings: rat, microsomes, pH 7.4
Property name: remaining at 0.25 h, 1 μM (%)
Please respond with the number in % and leave the unit unwritten.

// query # input compound: C[C@]12CC[C@H]3[C@@H](CCC4=CC(=O)CC[C@@]43C)[C@@H]1CC[C@@H]2O [Testosterone, testosterone, reference compound] ; wanted: its remaining at 0.25 h, 1 μM
// result 0

====

What remaining at 1 h, 1 μM was measured for each of the following?
Experimental protocol: in vitro
Settings: monkey, microsomes, pH 7.4
Where a SMILES comes first, the peptide text is derived from it. [ ]: non-standard residue; d: D form. ξ: configuration not given here. ξTic = O=C(O)C1Cc2ccccc2CN1; ξOic = O=C(O)C1CC2CCCCC2N1
Please respond with the number in % and leave the unit unwritten.

// query # input molecule: CC(=O)N[C@@H](Cc1ccccc1)C(=O)N1Cc2ccccc2CC1C(=O)N1C(C(=O)N[C@@H](CCCCN)C(=O)N2Cc3ccccc3CC2C(=O)N2C(C(=O)N[C@@H](Cc3ccccc3)C(=O)N3Cc4ccccc4CC3C(=O)N3C(C(=O)N[C@@H](CCCCN)C(=O)N4Cc5ccccc5CC4C(=O)N[C@@H](CCCCN)C(=O)N[C@@H](CCCCN)C(=O)N[C@@H](CCCCN)C(=O)N[C@@H](CCCCN)C(N)=O)CC4CCCCC43)CC3CCCCC32)CC2CCCCC21 (stereo partly drawn) [FKAB-1Gc] (Ac-F[ξTic][ξOic]K[ξTic][ξOic]F[ξTic][ξOic]K[ξTic]KKKK-NH2) ; wanted: its remaining at 1 h, 1 μM
// result 75

// query # input molecule: CC(C)NCC(O)COc1cccc2ccccc12 (stereo not drawn) [Propranolol, propranolol, reference compound] ; wanted: its remaining at 1 h, 1 μM
// result 0.5

// query # input molecule: CC(=O)CC(c1ccccc1)c1c(O)c2ccccc2oc1=O (stereo not drawn) [Warfarin, warfarin, reference compound] ; wanted: its remaining at 1 h, 1 μM
// result 81

====

Test system: Mycobacterium ranae (ATCC 110)
Settings: ATCC 110
Where a SMILES comes first, the peptide text is derived from it. [ ]: non-standard residue; d: D form. ξ: configuration not given here. Oic = O=C(O)[C@@H]1C[C@@H]2CCCC[C@@H]2N1; ξTic = O=C(O)C1Cc2ccccc2CN1; ξOic = O=C(O)C1CC2CCCCC2N1
Property name: MIC Mycobacterium ranae (µM)
Please respond with the number in µM and leave the unit unwritten.

// query Provide the documented MIC Mycobacterium ranae with Mycobacterium ranae (ATCC 110) as the system for CC(=O)NCC(=O)N1Cc2ccccc2CC1C(=O)N1C(C(=O)N[C@@H](CCCCN)C(=O)N2Cc3ccccc3CC2C(=O)N2C(C(=O)NCC(=O)N3Cc4ccccc4CC3C(=O)N3C(C(=O)N[C@@H](CCCCN)C(=O)N4Cc5ccccc5CC4C(=O)N[C@@H](CCCCN)C(=O)N[C@@H](CCCCN)C(=O)N[C@@H](CCCCN)C(=O)N[C@@H](CCCCN)C(N)=O)CC4CCCCC43)CC3CCCCC32)CC2CCCCC21 (some centres unmarked) [FKAB-1Ge] (Ac-G[ξTic][ξOic]K[ξTic][ξOic]G[ξTic][ξOic]K[ξTic]KKKK-NH2)
// result 3.00

// query Provide the documented MIC Mycobacterium ranae with Mycobacterium ranae (ATCC 110) as the system for CC(=O)NCC(=O)N[C@@H](Cc1ccccc1)C(=O)NCC(=O)N1C(C(=O)NCC(=O)N[C@@H](CCCCN)C(=O)NCC(=O)N2C(C(=O)NCC(=O)N[C@@H](Cc3ccccc3)C(=O)NCC(=O)N3C(C(=O)NCC(=O)N[C@@H](CCCCN)C(=O)NCC(=O)N[C@@H](CCCCN)C(=O)N[C@@H](CCCCN)C(=O)N[C@@H](CCCCN)C(=O)N[C@@H](CCCCN)C(N)=O)CC4CCCCC43)CC3CCCCC32)CC2CCCCC21 (some centres unmarked) [FKAB-1Gf1] (Ac-GFG[ξOic]GKG[ξOic]GFG[ξOic]GKGKKKK-NH2)
// result 100.00

// query Provide the documented MIC Mycobacterium ranae with Mycobacterium ranae (ATCC 110) as the system for CC(=O)NCC(=O)N[C@@H](Cc1ccccc1)C(=O)N1Cc2ccccc2CC1C(=O)NCC(=O)N[C@@H](CCCCN)C(=O)N1Cc2ccccc2CC1C(=O)NCC(=O)N[C@@H](Cc1ccccc1)C(=O)N1Cc2ccccc2CC1C(=O)NCC(=O)N[C@@H](CCCCN)C(=O)N1Cc2ccccc2CC1C(=O)N[C@@H](CCCCN)C(=O)N[C@@H](CCCCN)C(=O)N[C@@H](CCCCN)C(=O)N[C@@H](CCCCN)C(N)=O (some centres unmarked) [FKAB-1Gg] (Ac-GF[ξTic]GK[ξTic]GF[ξTic]GK[ξTic]KKKK-NH2)
// result 30.00

// query Provide the documented MIC Mycobacterium ranae with Mycobacterium ranae (ATCC 110) as the system for CC(=O)NCC(=O)N[C@@H](Cc1ccccc1)C(=O)N1Cc2ccccc2CC1C(=O)NCC(=O)NCC(=O)N[C@@H](CCCCN)C(=O)N1Cc2ccccc2CC1C(=O)NCC(=O)NCC(=O)N[C@@H](Cc1ccccc1)C(=O)N1Cc2ccccc2CC1C(=O)NCC(=O)NCC(=O)N[C@@H](CCCCN)C(=O)N1Cc2ccccc2CC1C(=O)N[C@@H](CCCCN)C(=O)N[C@@H](CCCCN)C(=O)N[C@@H](CCCCN)C(=O)N[C@@H](CCCCN)C(N)=O (some centres unmarked) [FKAB-1Gg1] (Ac-GF[ξTic]GGK[ξTic]GGF[ξTic]GGK[ξTic]KKKK-NH2)
// result 30.00

// query Provide the documented MIC Mycobacterium ranae with Mycobacterium ranae (ATCC 110) as the system for CC(=O)NCC(=O)N[C@@H](Cc1ccccc1)C(=O)N1[C@H](C(=O)NCC(=O)N[C@@H](CCCCN)C(=O)N2[C@H](C(=O)NCC(=O)N[C@@H](Cc3ccccc3)C(=O)N3[C@H](C(=O)NCC(=O)N[C@@H](CCCCN)C(=O)N[C@@H](CCCCN)C(=O)N[C@@H](CCCCN)C(=O)N[C@@H](CCCCN)C(=O)N[C@@H](CCCCN)C(N)=O)C[C@@H]4CCCC[C@@H]43)C[C@@H]3CCCC[C@@H]32)C[C@@H]2CCCC[C@@H]21 [FKAB-1Gf, Ac-GF-Oic-GK-Oic-GF-Oic-GKKKKK-CONH2] (Ac-GF[Oic]GK[Oic]GF[Oic]GKKKKK-NH2)
// result 100.00

====

What remaining at 0.5 h, 1 μM was measured for each of the following?
Experimental protocol: in vitro
Settings: rat, microsomes, pH 7.4
Where a SMILES comes first, the peptide text is derived from it. [ ]: non-standard residue; d: D form. ξ: configuration not given here. ξTic = O=C(O)C1Cc2ccccc2CN1; ξOic = O=C(O)C1CC2CCCCC2N1
Please respond with the number in % and leave the unit unwritten.

// query # input molecule: CC(C)NCC(O)COc1cccc2ccccc12 (stereo not shown) [Propranolol, propranolol, reference compound] ; wanted: its remaining at 0.5 h, 1 μM
// result 0.1

// query # input molecule: CC(=O)NCC(=O)N1Cc2ccccc2CC1C(=O)N1C(C(=O)N[C@@H](CCCCN)C(=O)N2Cc3ccccc3CC2C(=O)N2C(C(=O)NCC(=O)N3Cc4ccccc4CC3C(=O)N3C(C(=O)N[C@@H](CCCCN)C(=O)N4Cc5ccccc5CC4C(=O)N[C@@H](CCCCN)C(=O)N[C@@H](CCCCN)C(=O)N[C@@H](CCCCN)C(=O)N[C@@H](CCCCN)C(N)=O)CC4CCCCC43)CC3CCCCC32)CC2CCCCC21 (stereo partly shown) [FKAB-1Ge] (Ac-G[ξTic][ξOic]K[ξTic][ξOic]G[ξTic][ξOic]K[ξTic]KKKK-NH2) ; wanted: its remaining at 0.5 h, 1 μM
// result 73

// query # input molecule: CC(=O)CC(c1ccccc1)c1c(O)c2ccccc2oc1=O (stereo not shown) [Warfarin, warfarin, reference compound] ; wanted: its remaining at 0.5 h, 1 μM
// result 97

// query # input molecule: CC(=O)N[C@@H](Cc1ccccc1)C(=O)N1Cc2ccccc2CC1C(=O)N1C(C(=O)N[C@@H](CCCCN)C(=O)N2Cc3ccccc3CC2C(=O)N2C(C(=O)N[C@@H](Cc3ccccc3)C(=O)N3Cc4ccccc4CC3C(=O)N3C(C(=O)N[C@@H](CCCCN)C(=O)N4Cc5ccccc5CC4C(=O)N[C@@H](CCCCN)C(=O)N[C@@H](CCCCN)C(=O)N[C@@H](CCCCN)C(=O)N[C@@H](CCCCN)C(N)=O)CC4CCCCC43)CC3CCCCC32)CC2CCCCC21 (stereo partly shown) [FKAB-1Gc] (Ac-F[ξTic][ξOic]K[ξTic][ξOic]F[ξTic][ξOic]K[ξTic]KKKK-NH2) ; wanted: its remaining at 0.5 h, 1 μM
// result 80

These measurements were taken from patent US20120197004A1.
